target: hERG channel (Homo sapiens (Human), UniProt Q12809); assay: hERG inhibition assay (manual patch-clamp, HEK 293 cells)
Sequence (Q12809 whole entry): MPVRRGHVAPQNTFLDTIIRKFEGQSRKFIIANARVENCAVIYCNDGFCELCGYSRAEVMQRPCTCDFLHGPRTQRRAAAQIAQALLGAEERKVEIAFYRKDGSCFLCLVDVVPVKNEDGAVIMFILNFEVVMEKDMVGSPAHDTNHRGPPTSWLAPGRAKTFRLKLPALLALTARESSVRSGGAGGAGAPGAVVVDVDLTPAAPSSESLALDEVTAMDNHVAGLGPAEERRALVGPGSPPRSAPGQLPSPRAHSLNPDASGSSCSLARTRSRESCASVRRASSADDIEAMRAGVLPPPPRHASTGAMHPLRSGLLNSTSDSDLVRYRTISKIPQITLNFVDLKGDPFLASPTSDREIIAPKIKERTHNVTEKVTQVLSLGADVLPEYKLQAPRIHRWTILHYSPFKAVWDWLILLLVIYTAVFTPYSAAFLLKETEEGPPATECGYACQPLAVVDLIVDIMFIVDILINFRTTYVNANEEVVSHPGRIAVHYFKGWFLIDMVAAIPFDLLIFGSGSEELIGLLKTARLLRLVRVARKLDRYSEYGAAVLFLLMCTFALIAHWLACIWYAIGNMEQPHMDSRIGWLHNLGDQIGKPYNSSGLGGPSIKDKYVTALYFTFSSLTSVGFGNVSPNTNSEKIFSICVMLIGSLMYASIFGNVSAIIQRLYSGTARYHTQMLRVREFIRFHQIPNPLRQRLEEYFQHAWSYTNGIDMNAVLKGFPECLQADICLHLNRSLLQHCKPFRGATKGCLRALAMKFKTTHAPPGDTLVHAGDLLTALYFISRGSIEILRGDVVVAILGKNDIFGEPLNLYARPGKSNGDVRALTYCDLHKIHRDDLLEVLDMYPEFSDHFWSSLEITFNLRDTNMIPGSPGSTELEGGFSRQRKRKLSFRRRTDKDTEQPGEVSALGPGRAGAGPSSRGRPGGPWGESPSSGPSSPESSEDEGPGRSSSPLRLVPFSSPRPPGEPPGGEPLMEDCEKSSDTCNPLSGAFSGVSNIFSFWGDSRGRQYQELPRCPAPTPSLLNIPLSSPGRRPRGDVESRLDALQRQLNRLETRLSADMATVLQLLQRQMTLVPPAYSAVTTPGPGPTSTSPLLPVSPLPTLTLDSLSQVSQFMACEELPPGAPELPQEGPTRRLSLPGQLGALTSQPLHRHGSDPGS
The reader will find reported IC50 values listed item by item below.
assay metric: IC50

| compound | assay metric | observed measurement |
| --- | --- | --- |
| Cc1nc(-c2nnc3n2CCN(C(=O)c2ccc(-c4cccs4)cc2)[C@@H]3C)co1 [Compound 11] | IC50 | > 30 µM |
| Cc1nc(-c2nnc3n2CCN(C(=O)c2ccc(-c4cccs4)cc2)[C@@H]3C)cs1 [Compound 1] | IC50 | > 30 µM |
| O=C(c1ccc(-c2cccs2)cc1)N1CCn2c(nnc2-c2csc(C(F)(F)F)n2)C1 [Compound 4] | IC50 | > 30 µM |

###

Measured Ki by item
molecular target: human NK-3 receptor (Homo sapiens (Human)); experiment: 3H-SB222200 binding competition assay with human NK-3 receptor; settings: Table 6; membranes of CHO cells expressing human NK3 receptor, 5 nM 3H-SB222200; read-out: Ki
Sequence (P29371 whole entry): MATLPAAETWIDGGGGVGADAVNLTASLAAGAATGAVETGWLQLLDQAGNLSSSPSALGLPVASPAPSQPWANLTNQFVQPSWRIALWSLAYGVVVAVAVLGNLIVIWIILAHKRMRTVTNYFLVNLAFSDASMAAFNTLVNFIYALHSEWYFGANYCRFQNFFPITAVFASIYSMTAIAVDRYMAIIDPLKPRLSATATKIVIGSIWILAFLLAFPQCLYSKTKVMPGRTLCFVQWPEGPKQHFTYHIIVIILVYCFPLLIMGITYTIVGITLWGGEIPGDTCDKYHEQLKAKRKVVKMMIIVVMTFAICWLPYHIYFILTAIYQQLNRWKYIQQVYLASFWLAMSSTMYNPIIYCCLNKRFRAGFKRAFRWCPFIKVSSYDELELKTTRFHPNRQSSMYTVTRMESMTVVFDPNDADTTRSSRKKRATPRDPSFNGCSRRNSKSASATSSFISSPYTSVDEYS

| compound | Ki / nM |
| --- | --- |
| C[C@@H]1c2nnc(-c3cccc(O)n3)n2CCN1C(=O)c1ccc(-c2cccs2)cc1 [Compound 31] | 22 |
| C[C@@H]1c2nnc(-c3csc(N(C)C)n3)n2CCN1C(=O)c1ccc(-c2cccs2)cc1 [Compound 17] | 7 |
| C=Cc1nc(-c2nnc3n2CCN(C(=O)c2ccc(-c4cccs4)cc2)[C@@H]3C)cs1 [Compound 7] | 4 |
| Cc1csc(-c2nnc3n2CCN(C(=O)c2ccc(-c4ccccc4)cc2)C3)n1 [Compound 21] | 38 |
| CCc1nc(-c2nnc3n2CCN(C(=O)c2ccc(-c4ccccc4)cc2)[C@@H]3C)cs1 [Compound 6] | 11 |
| Cc1coc(-c2nnc3n2CCN(C(=O)c2ccc(-c4ccccc4)cc2)[C@@H]3C)n1 [Compound 27] | 51 |
| Cc1csc(-c2nnc3n2CCN(C(=O)c2ccc(-c4cccs4)cc2)[C@@H]3C)n1 [Compound 19] | 6 |
| Cc1nc(-c2nnc3n2CCN(C(=O)c2ccc(-c4cccs4)cc2)[C@@H]3C)co1 [Compound 11] | 44 |
| C=Cc1nc(-c2nnc3n2CCN(C(=O)c2ccc(-c4ccccc4)cc2)C3)cs1 [Compound 10] | 36 |

Value source: patent US9475814B2
